# procedureDetails: ATG_AP_2_CIS: Attagene CIS-FACTORIAL HepG2 Assay for human Activator Protein 2 (AP-2) (AID 2282932)
# assaySetup: HepG2 AP-2 cis-reporter, Attagene transcription factor profiling; actives raise or lower the signal
Calls of active or inactive are those of the source. Rule for the calls: active = hit-call score of the fitted dose curve at least 0.9, where 1 is the maximum; inactive = score below 0.9.
Give one outcome, nothing more. List: T = active, F = inactive

stdin: Please state the recorded outcome for this compound: Cc1ccc(N(C)C)cc1
stdout: F

stdin: C=CCc1ccc(O)c(OC)c1 ?
stdout: F

stdin: Thanks! And CCCCCCCCCCCCCCCCCC(=O)O ?
stdout: F

stdin: Same question for Cc1ccc2ncccc2c1 please.
stdout: F

stdin: CN1CCCC1=O , same question.
stdout: F

As a next step, examine the compound that follows.
stdin: Outcome logged for CCCCc1ccc2c(n1)[C@@H](c1ccc(OC)cc1C[C@H](C)C(=O)O)[C@H](C(=O)O)[C@H]2c1ccc2c(c1)OCO2 in this assay:
stdout: F

* * *

# procedureDetails: ATG_CMV_CIS: Attagene CIS-FACTORIAL HepG2 Assay for human CMV (Internal Marker) (AID 2282928);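 note: endpoint acts as a background internal control marker rather than a target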
# assaySetup: HepG2 CMV promoter reporter, transcription factor profiling; actives raise or lower the signal
Active and inactive are the calls of the source. Rule for the calls: active = hit-call score of the fitted dose curve at least 0.9, where 1 is the maximum; inactive = score below 0.9.
Thanks in advance; please answer with one of these: active, inactive

stdin: What call does the record list for C[Si]1(C)O[Si](C)(C)O[Si](C)(C)O[Si](C)(C)O1 ?
stdout: inactive

stdin: Moving on to c1cc(-c2ccncc2)ccn1
stdout: inactive

stdin: Now the molecule CCOC(=O)C(C)(C)Oc1ccc(Cl)cc1
stdout: inactive

***
stdin: Any idea what this test logged for Cc1oc(-c2ccccc2)nc1CCOc1cccc2c1ccn2CCC(=O)O ?
stdout: active

stdin: Another molecule: CC(C)(C)c1cc(O)c(C(C)(C)C)cc1O
stdout: active

stdin: Now give it for CCCCN(CCCC)CCCC too.
stdout: inactive

* * *

# procedureDetails: BSK_SAg_Proliferation: Cell Proliferation Assessment in the BioMAP Diversity Plus: SAg Assay (AID 2283095);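 note: relative cell number as total protein by SRB absorbance in sub-confluent culture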
# assaySetup: primary human HUVEC with PBMC
Activity calls are given as the source filed them. Rule for the calls: active = hit-call score of the fitted dose curve at least 0.9, where 1 is the maximum; inactive = score below 0.9.
Please answer using one outcome listed in active, inactive

stdin: Recorded test call requested for COCCOCCOC
stdout: inactive

stdin: Cool, now CCCCCCC(=O)OCC
stdout: inactive

stdin: How about FC(F)(F)C(F)(F)C(F)(F)C(F)(F)C(F)(F)C(F)(F)CCI ?
stdout: inactive

stdin: Also need Cc1c(C(=O)O)c(O)cc2c1C(=O)c1c(O)c([C@@H]3O[C@H](CO)[C@@H](O)[C@H](O)[C@H]3O)c(O)c(O)c1C2=O , thanks.
stdout: inactive

Continuing:
stdin: Could you kindly confirm the outcome this assay logged for CC(=O)OC/C=C(\C)CCC=C(C)C ?
stdout: inactive

stdin: Queued: C[Si]1(C)O[Si](C)(C)O[Si](C)(C)O[Si](C)(C)O1
stdout: inactive

stdin: Lookup CCNc1cccc(C)c1
stdout: inactive

stdin: Same question, CCCCCCCCCCCC(=O)OC this time
stdout: inactive

stdin: Subsequent entry: O=C(N[C@@H](Cc1ccccc1)[C@@H](O)C(=O)N1C[C@@H](O)[C@@H](O)C1)c1cc2cc(Cl)ccc2[nH]1
stdout: inactive

stdin: Next: Cc1nc(-c2ccc3c(c2)CCN(CCC2CCC(NC(=O)/C=C/c4ccc(F)cc4)CC2)CC3)no1 (stereo unspecified)
stdout: inactive

stdin: Query CCCCCCOCCO next
stdout: inactive

stdin: Same again, this time with Cc1ccccc1Cl
stdout: inactive

stdin: Quick one: Cc1nc(C)nc(N2C[C@@H](C)N(c3ccnc([C@@H](C)O)n3)[C@@H](C)C2)n1
stdout: inactive

stdin: Follow-up item: Cc1ccc(C(C)C)c(O)c1
stdout: inactive

stdin: Now consider O=C(O)CCCCC(=O)O .
stdout: inactive

stdin: Next up: CCCCCCCCCCCCCCCCCC(=O)O
stdout: active

stdin: What do you have for Nc1ccc(S(=O)(=O)c2ccc(N)cc2)cc1 ?
stdout: inactive

stdin: Param item: CCCCCC(=O)O
stdout: inactive

stdin: Entry Cc1cccc(C)c1O please
stdout: inactive

stdin: Then C[C@]12C=CC(=O)C=C1CC[C@@H]1[C@@H]2C(=O)C[C@@]2(C)[C@H]1CC[C@]2(O)C(=O)CO ?
stdout: inactive

* * *

# Read-out: CD40, CD40 (gene 958)
# procedureDetails: BSK_LPS_CD40: BioMAP Diversity Plus: LPS Assay for CD40 Biomarker Activity (AID 2283076)
# assaySetup: primary human HUVEC with PBMC; actives raise or lower the signal
The source made the active and inactive calls. The calls were made as follows: active = hit-call score of the fitted dose curve at least 0.9, where 1 is the maximum; inactive = score below 0.9.
Form entry, call: pick from 1 for active, 0 for inactive

# count of solved cases: 3
stdin: Which outcome was entered for the compound Clc1cc(Cl)c(Cl)cc1Cl in this test?
stdout: 0

stdin: Again, but for Cc1ccc2ncccc2c1
stdout: 0

stdin: Same for CCCCCCCCCCC
stdout: 0

---
stdin: Record request — test call for CCCCCCCCCCCCCO
stdout: 1

stdin: // same read-out, input: Cc1cc(=O)[nH]c(=S)[nH]1
stdout: 0

* * *

# Read-out: Tissue Factor, F3 (gene 2152)
# procedureDetails: BSK_LPS_TissueFactor: BioMAP Diversity Plus: LPS Assay for Tissue Factor Biomarker Activity (AID 2283084)
# assaySetup: primary human HUVEC with PBMC; actives raise or lower the signal
The source made the active and inactive calls. How the source made its calls: active means hit-call score of the fitted dose curve at least 0.9, where 1 is the maximum; inactive means score below 0.9.
One label from this list, please: active, inactive

Some solved cases for reference:
stdin: Recorded test call requested for C=CCc1ccc(O)c(OC)c1
stdout: inactive

stdin: Also FC(F)(F)C(F)(F)C(F)(F)C(F)(F)C(F)(F)C(F)(F)CCI ?
stdout: inactive

stdin: Another compound to check: CCNc1cccc(C)c1
stdout: inactive

stdin: Now the compound COc1ccc2c(c1)c(CC(=O)O)c(C)n2C(=O)c1ccc(Cl)cc1
stdout: inactive

Others:
stdin: Recorded test outcome, item CN[C@H]1CC[C@@H](c2ccc(Cl)c(Cl)c2)c2ccc(S(N)(=O)=O)cc21
stdout: active

stdin: Next entry: O=[N+]([O-])C(CO)(CO)CO
stdout: inactive

stdin: Then this compound: CC(C)c1ccc(C(=O)N=C(N)N)cc1S(C)(=O)=O
stdout: inactive

stdin: What do we get for CCCCCCCC=O ?
stdout: inactive

stdin: Okay, and Cc1ccc(Cl)cc1 ?
stdout: inactive

stdin: What would you report for NCCO ?
stdout: inactive

stdin: Quick one: CC(C)(C)c1cc(O)c(C(C)(C)C)cc1O
stdout: inactive

* * *

# measuredTarget: Hepatocyte nuclear factor 6 (Homo sapiens) (UniProt Q9UBC0)
# Sequence (Q9UBC0 whole entry, looked up): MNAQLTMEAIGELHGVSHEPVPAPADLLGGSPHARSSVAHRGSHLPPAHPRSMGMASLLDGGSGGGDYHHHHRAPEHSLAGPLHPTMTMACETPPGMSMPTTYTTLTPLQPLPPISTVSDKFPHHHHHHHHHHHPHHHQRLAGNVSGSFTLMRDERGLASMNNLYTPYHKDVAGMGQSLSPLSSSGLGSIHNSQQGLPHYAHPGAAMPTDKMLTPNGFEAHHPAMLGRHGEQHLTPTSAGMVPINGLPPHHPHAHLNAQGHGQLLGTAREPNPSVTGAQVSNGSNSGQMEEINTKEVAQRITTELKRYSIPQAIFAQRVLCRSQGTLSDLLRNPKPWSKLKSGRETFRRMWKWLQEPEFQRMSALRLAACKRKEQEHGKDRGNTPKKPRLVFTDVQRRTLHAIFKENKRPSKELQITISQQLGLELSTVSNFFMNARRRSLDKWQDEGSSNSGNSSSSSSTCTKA
# procedureDetails: ATG_HNF6_CIS: Attagene CIS-FACTORIAL HepG2 Assay for human Hepatocyte Nuclear Factor 6 (HNF6) (AID 2282952)
# assaySetup: HepG2 Attagene cis-factorial HNF6 reporter transcription; actives raise or lower the signal
Activity calls are given as the source filed them. Rule for the calls: active = hit-call score of the fitted dose curve at least 0.9, where 1 is the maximum; inactive = score below 0.9.
experimentalReadout: outcome

stdin: What value of outcome has been recorded for this entry: COC(=O)c1ccc(O)cc1
stdout: inactive

stdin: Would you mind doing CCCCCC(=O)O as well?
stdout: inactive

stdin: Thanks! And CCCCC(CC)COC(=O)CC(C(=O)OCC(CC)CCCC)S(=O)(=O)O (stereo not given) ?
stdout: inactive

stdin: Cc1ccc(C(C)C)c(O)c1 , same question.
stdout: inactive

stdin: NS(=O)(=O)c1cc2c(cc1Cl)NCNS2(=O)=O , same question.
stdout: inactive

stdin: Moving on to the next compound: O=[N+]([O-])C(CO)(CO)CO
stdout: inactive

Continuing:
stdin: Could you tell me which outcome is on file for CCCCCCCCCCC ?
stdout: inactive

stdin: # repeat for Cc1cccc([N+](=O)[O-])c1C
stdout: inactive

stdin: Check Cc1ccc2ncccc2c1 too.
stdout: inactive

stdin: Same question for CC(CO)OC(C)CO (stereo not given) (tested in a mixture with another compound) please.
stdout: inactive

* * *

# measuredTarget: Nuclear receptor subfamily 1 group I member 2 (Homo sapiens)
# procedureDetails: NVS_NR_hPXR: NovaScreen (NVS) Nuclear Receptor Binding Assay for human Pregnane X Receptor (PXR) (AID 2283365);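 note: a drop in FRET signal versus DMSO baseline means the compound binds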
Records with an inconclusive call do not appear. Active and inactive are the calls of the source. How the source made its calls: active means hit-call score of the fitted dose curve at least 0.9, where 1 is the maximum; inconclusive means response in the unintended direction; inactive means score below 0.9.
API: response.call in active, inactive

stdin: Write down the call the test reported for this compound. Item: CNC(=O)[C@H]1O[C@@H](n2cnc3c(NCc4cc(Cl)ccc4OCc4cc(C)no4)ncnc32)[C@H](O)[C@@H]1N
stdout: inactive

stdin: Note, next up: CCCCC(CC)COC(=O)CC(C(=O)OCC(CC)CCCC)S(=O)(=O)O (stereo unspecified)
stdout: active

stdin: Another compound to check: CC(C)c1ccc(C(=O)N=C(N)N)cc1S(C)(=O)=O
stdout: inactive

stdin: Also CC(=O)OC/C=C(\C)CCC=C(C)C ?
stdout: inactive

New cases:
stdin: Per the assay record, what outcome was assigned to Cc1nc(-c2ccc3c(c2)CCN(CCC2CCC(NC(=O)/C=C/c4ccc(F)cc4)CC2)CC3)no1 (stereo unspecified) ?
stdout: inactive

stdin: # repeat for Cc1cccc(C)c1O
stdout: inactive
